Provenance of the data: patent US20180002288A1

- System: Phakopsora pachyrhizi
- procedure.details: Asian Soybean Rust fungicidal activity (PHAKPA)
- condition: Phakopsora pachyrhizi, in Glycine max, 24 h, read-out: PHAKPA 1DP % Control rating, soybean, high volume, 25 ppm, 1 Day Protectant
measurement.kind: pest or weed control at 25 ppm

Lab note: "COc1ccnc(C(=O)N[C@@H](C)C(=O)O[C@@H](C)[C@H](Oc2ccccc2)c2ccc(C)cc2F)c1OCOC(C)=O" gave pest or weed control at 25 ppm of > 80%

Next:
Lab note: COc1ccnc(C(=O)N[C@@H](C)C(=O)O[C@@H](C)C(Oc2ccc(F)cc2)c2ccc(F)cc2)c1OCOC(C)=O (stereo partly drawn) gave pest or weed control at 25 ppm of < 80%

Lab note: "COc1ccnc(C(=O)N[C@@H](C)C(=O)O[C@@H](C)[C@H](Oc2ccc(F)cc2)c2ccccc2)c1OCOC(C)=O" gave pest or weed control at 25 ppm of < 80%
